# targetUnderTest: T1, human CD20 (human, UniProt P11836 1-297)
# T1 construct: The forward primer starts at codon 2; also called hCD20; CHO-K1-hCD20
# T1 sequence: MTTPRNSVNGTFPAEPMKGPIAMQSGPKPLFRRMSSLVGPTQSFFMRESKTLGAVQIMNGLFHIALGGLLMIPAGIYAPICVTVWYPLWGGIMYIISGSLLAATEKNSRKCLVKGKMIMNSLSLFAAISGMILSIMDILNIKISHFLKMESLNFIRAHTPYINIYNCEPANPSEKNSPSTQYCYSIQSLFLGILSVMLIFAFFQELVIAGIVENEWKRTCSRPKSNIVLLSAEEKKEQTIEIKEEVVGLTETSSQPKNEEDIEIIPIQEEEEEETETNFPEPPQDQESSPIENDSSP
# assayNotes: cell ELISA, crude periplasmic extract, CHO-K1 expressing human CD20 against parental CHO-K1
propertyName: binding result

2HCD59 (VHH, Whole entry = VHH-AAA-HA-His6 (pMECS construct)) VHH: QVQLQESGGGSEQPGGSLRLSCAASGRTVGSYSMGWFRQAPGKEREFVAAVTRSGASPYYADSVKGRFTISRDNAKNTVYLQMNSLKPEDTAVYYCAANPTYSGGWHAEYWGQGTQVTVSS
binds
2HCD16 (VHH, Whole entry = VHH-AAA-HA-His6 (pMECS construct)) VHH: QVQLQESGGGLVQAGGSLRLSCAASGRTFSRQSMGWFRQAPGKEREFVAVITWSGGSPYYADSVRGRFTISRDNAKNTVYLQMNSLKPEDTAVYYCAAPVSYGSQWLADYWGQGTQVTVSS
binds
2HCD43 (VHH, Whole entry = VHH-AAA-HA-His6 (pMECS construct)) VHH: QVQLQESGGGLVQPGGSLRLSCTASGFTLDYYAIGWLRQAPGKEREGVSCISSSGGSTNYADSVKGRFTISRDNAKNTVYLLMNSLKPEDTAVYYCAAERTWVSNYYCSGDGDGYDYDYWGQGTQVTVSS
binds
R3CD7 (VHH, Whole entry = VHH-AAA-HA-His6 (pMECS construct)) VHH: QVQLQESGGGLVQAGGSLRLSCAASGRSFSSVNMGWFRQAPGKEREFVAVIDWSGGSPYYTDSVRGRFTISRDNSKNTVYLQMNSLKPEDTAVYYCAAGVSYGSRWLGDYWGQGTQVTVSS
binds
2HCD35 (VHH, Whole entry = VHH-AAA-HA-His6 (pMECS construct)) VHH: QVQLQESGGGLVQAGGSLRLSCAASGRTFSGQSMGWFRQAPGKEREFVAVITWSGGSPYYADSVRGRFTISRDNAKNTVHLQMNSLKPEDTAVYYCAAPVSYGSQWLADYWGQGTQVTVSS
binds
2HCD88 (VHH, Whole entry = VHH-AAA-HA-His6 (pMECS construct)) VHH: QVQLQESGGGLVQAGDSLRLSCAASGRTVGSYSMGWFRQAPGKEREFVAAVTWSGASPYYADSVKGRFTISRDNAKNTVYLQMNSLKPEDTAVYYCAANPTYSGGWHAEYWGQGTQVTVSS
binds
2HCD40 (VHH, Whole entry = VHH-AAA-HA-His6 (pMECS construct)) VHH: QVQLQESGGGLVQAGGSLRLSCAASGRTVGSYSMGWFRQAPGKEREFVAAVTWSGASPYYADSVKGRFTISRDNAKNTVYLQMNSLKPEDTAVYYCAANPTYSGGWHAEYWGQGTQVTVSS
binds
2HCD42 (VHH, Whole entry = VHH-AAA-HA-His6 (pMECS construct)) VHH: QVQLQESGGGLVQAGGSLRLSCAASGRTFSSYAMGWFRQAPGKEREFVAVITWSGGSPYYADSVRGRFTISRDNAKNTVYLQMNSLKPEDTAVYYCAAPVSYGSQWLADYWGQGTQVTVSS
binds
2HCD68 (VHH, Whole entry = VHH-AAA-HA-His6 (pMECS construct)) VHH: QVQLQESGGGLVQPGGSLRLSCAASRFTLDYYAIGWFRQAPGKEREFVAAVTWSGASPYYADSVKGRFTISRDNAKNTVYLQMNSLKPEDTAVYYCAANPTYSGGWHAEYWGQGTQVTVSS
binds
R3CD105 (VHH, Whole entry = VHH-AAA-HA-His6 (pMECS construct)) VHH: QVQLQESGGGLVQAGGSLRLSCAASGRTFSNYNMGWFRQAPGKEREFVAAIDWSGGSPYYAASVRGRFTISRDNAENTVYLQMNSLKPEDTAVYYCAAPLSYGSTWLADYWGQGTQVTVSS
binds
2HCD22 (VHH, Whole entry = VHH-AAA-HA-His6 (pMECS construct)) VHH: QVQLQESGGGLVQAGDSLRLSCAASGRTFSRQSMGWFRQAPGKEREFVAVITWSGGSPYYADSVKGRFTISRDNAKNTVYLQMNSLKPEDTAVYYCAAPVSYGSQWLADYWGQGTQVTVSS
binds
R3CD18 (VHH, Whole entry = VHH-AAA-HA-His6 (pMECS construct)) VHH: QVQLQESGGGLVQAGGSLRLSCAASGRTFSNSNMGWFRQAPGKEREFVAVIDWSGGSPYYTDSVRGRFTISRDNAKNTVYLQMNRLKPEDTAVYYCAGGVSFGSRWLSDYWGQGTQVTVSS
binds
